Molecular target: Serine Palmitoyl Transferase (SPT); microsomes from HEK 293 cells stably transfected with human LCB2 subunit of SPT (Homo sapiens)
Construct: expressed in transfected cells; host or cells: HEK 293 cells stably transfected with LCB2; microsomal fraction
Sequence (O15270 whole entry): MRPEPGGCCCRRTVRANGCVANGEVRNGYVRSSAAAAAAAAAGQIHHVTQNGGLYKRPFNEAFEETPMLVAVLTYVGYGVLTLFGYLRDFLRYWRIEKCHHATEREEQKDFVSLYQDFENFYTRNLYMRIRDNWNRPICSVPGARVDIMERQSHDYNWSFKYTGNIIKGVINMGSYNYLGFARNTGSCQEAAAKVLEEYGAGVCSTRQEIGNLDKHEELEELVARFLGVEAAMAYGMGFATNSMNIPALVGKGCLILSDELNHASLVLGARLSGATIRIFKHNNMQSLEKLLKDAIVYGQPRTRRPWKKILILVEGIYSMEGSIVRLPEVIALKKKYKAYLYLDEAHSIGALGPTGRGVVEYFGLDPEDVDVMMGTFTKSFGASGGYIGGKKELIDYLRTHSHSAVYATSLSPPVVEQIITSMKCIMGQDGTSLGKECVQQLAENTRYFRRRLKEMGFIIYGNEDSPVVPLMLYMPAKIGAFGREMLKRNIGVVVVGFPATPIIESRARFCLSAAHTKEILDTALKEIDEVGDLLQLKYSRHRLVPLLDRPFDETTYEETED
Sequence (O15269 whole entry partner): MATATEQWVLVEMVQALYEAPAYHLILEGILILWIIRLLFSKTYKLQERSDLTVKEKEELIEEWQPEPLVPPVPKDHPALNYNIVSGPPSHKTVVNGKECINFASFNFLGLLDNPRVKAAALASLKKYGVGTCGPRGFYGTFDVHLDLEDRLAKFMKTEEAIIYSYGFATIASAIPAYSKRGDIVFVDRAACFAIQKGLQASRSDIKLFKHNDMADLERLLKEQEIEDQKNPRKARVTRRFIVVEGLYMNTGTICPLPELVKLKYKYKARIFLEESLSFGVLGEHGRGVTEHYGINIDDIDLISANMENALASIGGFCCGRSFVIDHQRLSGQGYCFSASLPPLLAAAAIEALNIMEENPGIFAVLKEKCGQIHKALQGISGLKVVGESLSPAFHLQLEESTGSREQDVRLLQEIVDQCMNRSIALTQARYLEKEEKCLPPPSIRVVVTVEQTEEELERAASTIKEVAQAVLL
Sequence (Q969W0 whole entry partner): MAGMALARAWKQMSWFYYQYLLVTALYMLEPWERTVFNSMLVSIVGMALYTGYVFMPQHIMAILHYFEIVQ
Experiment: SPT flashplate assay
Format: biochemical
Conditions: microsomes of HEK 293 LCB2 cells, 3H-serine and palmitoyl CoA, phospholipid coated flashplate, 18-24 hours at room temperature; read-out: SPTISF IC50
Structures can show the parent of a compound that is named as a salt.
VALUE TYPE: pIC50
In simple prose, pIC50 is minus the logarithm base ten of a concentration in moles per litre.

Some molecules with recorded pIC50:
molecule="COC1(C)CCN(C(=O)CN2CCC(n3c(=O)[nH]c4cc(C(C)=O)ccc43)CC2)CC1 [Example 55, HCl salt]" value_type=pIC50 value_observed=7.15
molecule="CNC(=O)c1cc2[nH]c(=O)n(C3CCN(CC(=O)C4CCC(C(C)(C)C)CC4)CC3)c2cc1F (stereo not drawn) [Example 14]" value_type=pIC50 value_observed=6.97

From here, focus on the item given below.
For record CNC(=O)c1cc2[nH]c(=O)n(C3CCN(CC(=O)C4CCCCC4)CC3)c2cc1F [Example 11] the listed pIC50 is 7.20
